TARGET OR TEST SYSTEM: TelJak3 (BaF3 TELJAK cells, TEL/JAK3 fusion) (Homo sapiens)
Construct: For JAK3 Sa1 I/Not I cleaved kinase domain PCR product was ligated with BamH I/Sa1 I cleaved TELproduct; expressed in transfected cells; host or cells: BaF3 cells bearing the pTET-off plasmid, transfected with pTELJAK3 (pTRE2 vector); the other entry of the earlier key: ETV6 (P41212, Transcription factor ETV6)
Sequence (P52333 with tags, fused parts or gaps): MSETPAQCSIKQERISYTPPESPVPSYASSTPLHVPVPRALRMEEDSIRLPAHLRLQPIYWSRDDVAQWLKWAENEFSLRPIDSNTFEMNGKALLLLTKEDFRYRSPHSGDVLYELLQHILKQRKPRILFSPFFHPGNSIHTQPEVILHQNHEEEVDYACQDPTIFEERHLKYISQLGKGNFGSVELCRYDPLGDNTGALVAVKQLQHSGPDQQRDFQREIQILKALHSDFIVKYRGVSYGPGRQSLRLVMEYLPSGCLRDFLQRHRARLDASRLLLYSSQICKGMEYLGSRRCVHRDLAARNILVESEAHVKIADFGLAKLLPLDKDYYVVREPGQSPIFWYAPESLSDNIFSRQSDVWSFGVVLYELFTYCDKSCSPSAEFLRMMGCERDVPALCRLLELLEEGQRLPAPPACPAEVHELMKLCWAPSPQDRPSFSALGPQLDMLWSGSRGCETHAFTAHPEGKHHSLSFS
PROTOCOL SUMMARY: Cellular growth inhibition assay (MTT), BaF3 TEL:JAK3 cell line
Assay type: cell-based
APPLIED CONDITIONS: Table 1, 40 hr incubation
Hi there, I'd appreciate the recorded inhibition at 20 µM for every entry that follows.

INPUT: Query inhibition at 20 µM for CCCC(Nc1cncc(-c2cc(C)c(O)c(C)c2)c1)c1ccccc1 (stereo not drawn)
OUTPUT: > 50%

INPUT: Supply reported inhibition at 20 µM belonging to this molecule: CCCC(Nc1cncc(-c2ccc(OCCCCN3CCCC3)c(OC)c2)n1)c1ccccc1 (stereo not drawn)
OUTPUT: > 50%

INPUT: Please look at this molecule and report its inhibition at 20 µM: CCNC(=O)Nc1ccc(-c2ncc(C)c(N[C@@H](CC)c3cccnc3)n2)cc1OC
OUTPUT: > 50%

INPUT: Please indicate inhibition at 20 µM recorded for CCC[C@H](Nc1nc(-c2ccc(O)c(OC)c2)ncc1C)c1cccnc1
OUTPUT: > 50%

INPUT: Give the reported inhibition at 20 µM for this molecule. CCCC(Nc1cncc(-c2ccc(CO)c(OC)c2)n1)c1cccnc1 (stereo not drawn)
OUTPUT: > 50%

INPUT: Supply inhibition at 20 µM value. Item: COc1cc(-c2cncc(N[C@@H](C)c3ccccc3)c2)ccc1O
OUTPUT: > 50%

INPUT: In one line, give reported inhibition at 20 µM of the entry CCCC(Nc1cncc(-c2ccc(C(=O)NCCN(C)C)cc2)n1)c1ccccc1 (stereo not drawn) .
OUTPUT: > 50%

INPUT: Please give the documented inhibition at 20 µM of CCCC(Nc1cncc(-c2ccc(C(=O)NCCCN3CCOCC3)cc2)n1)c1ccccc1 (stereo not drawn)
OUTPUT: > 50%

INPUT: For the molecule CCCC(Nc1cncc(-c2ccc(OCCN(CC)CC)c(OC)c2)n1)c1cncc(C)c1 (stereo not drawn) , give its reported inhibition at 20 µM.
OUTPUT: > 50%

INPUT: Please supply the value of reported inhibition at 20 µM for the item CCCC(Nc1cncc(-c2ccc(OCCCN(CC)CC)c(OC)c2)n1)c1ccccc1 (stereo not drawn)
OUTPUT: > 50%

INPUT: Note inhibition at 20 µM for the molecule shown: CCCC(Nc1cncc(-c2ccc(CNC(=O)C3CCNCC3)cc2)n1)c1ccccc1 (stereo not drawn)
OUTPUT: > 50%

INPUT: // Input: CCCC(Nc1cncc(-c2ccc(OCCCCN)c(OC)c2)n1)c1ccccc1 (stereo not drawn) . Output its inhibition at 20 µM only.
OUTPUT: > 50%

INPUT: Determine its reported inhibition at 20 µM: CCCC(Nc1cncc(-c2ccc(CN3CCC(O)CC3)cc2)n1)c1ccccc1 (stereo not drawn)
OUTPUT: > 50%

INPUT: Write down inhibition at 20 µM measured for item CCCC(Nc1cncc(-c2ccc(CN)c(OC)c2)n1)c1cccnc1 (stereo not drawn)
OUTPUT: > 50%

INPUT: Please list inhibition at 20 µM recorded for the molecule CCCC(Nc1nnc(C)c(-c2cc(OC)c(OC)c(OC)c2)n1)c1ccccc1 (stereo not drawn)
OUTPUT: > 50%

INPUT: Consider the molecule COc1cc(-c2nccc(N[C@@H](C)c3ccccc3)n2)ccc1O and give its recorded inhibition at 20 µM.
OUTPUT: > 50%

INPUT: Item CCCC(Nc1cncc(-c2ccc(OCCCN3CCN(C)CC3)c(OC)c2)n1)c1cccnc1 (stereo not drawn) : provide inhibition at 20 µM
OUTPUT: > 50%

INPUT: Name the recorded inhibition at 20 µM of the molecule listed here: CCCC(Nc1cncc(-c2ccc(OCCCCN3CCCCC3)c(OC)c2)n1)c1ccccc1 (stereo not drawn)
OUTPUT: > 50%

INPUT: Give the reported inhibition at 20 µM for this molecule. CCCC(Nc1cncc(-c2ccc(OCCCN3CCOCC3)c(OC)c2)n1)c1ccccc1 (stereo not drawn)
OUTPUT: > 50%

INPUT: Return reported inhibition at 20 µM. Input molecule: COc1cc(-c2ncc(C)c(NC(CCO)c3ccccc3)n2)ccc1O (stereo not drawn)
OUTPUT: > 50%

INPUT: Give inhibition at 20 µM for the following molecule: CCCC(Nc1cncc(-c2ccc(OCCCCN3CCN(C)CC3)c(OC)c2)n1)c1ccccc1 (stereo not drawn)
OUTPUT: > 50%
